tested on: HSV-2 G infected cell lysates; assay: ELISA binding of recombinant antibodies to HSV-2 G infected cell lysates; set-up: species or system HSV-2 G strain; details: Table 3 summary
Assay metric: Binding to HSV-lysate

- HSV010-14: gB-1 specific mouse monoclonal IgG; IgH SEQ ID NO: 56, IgL SEQ ID NO: 58 (antibody, V domains shown, HSV010-14 heavy chain; HSV010-14 light chain) VH: QVQLQQPGAELVKPGASVKLSCKASGYTFTSYWIHWVKQRPGQGLEWIGMIHPNSGIAHYSEKFKSTATLTVDKSSSTAYMQLSSLTSEDSSVYYCARGSSSGSAWFAYWGQGTLVTVSAA VL: DIQMTQSSSYLSVSLGGRVTITCKAGDHINNWLAWYQQKPGNAPRLLISGATSLETGVPSRFSGSGSGKDYTLSITSLQTEDVATYYCQQYWSTPLTFGAGTKLELKR: Yes
- HSV010-6: gB-1 specific mouse monoclonal IgG; IgH SEQ ID NO: 44, IgL SEQ ID NO: 46 (antibody, V domains shown, HSV010-6 heavy chain; HSV010-6 light chain) VH: QVQLQQPGAELVKPGASVKLSCKASGYTFTNYWIHWVKQRPGQGLEWIGMIHPNIGITHYSERFKSKATLTVDKSSTTAYMQLSSLTSEDSAVYYCARGSDSGSAWFAYWGQGTLVTVSAA VL: DIQMTQSSSYLSVSLGGRVTITCKASDHINNWLAWYLQKPGNAPRLLMSGATSLETGVPSRFSGSGSGKDYTLSITSLQTEDVATYYCQQYWSTPLTFGAGTKLELKR: Yes
